species: Homo sapiens; experiment: Concentration required for inhibitory activity against human PMNLs chemotaxis; format: functional, organism-based; details: PMNL
Each item that follows carries a reported log10 IC50.
Quantity name: log10 IC50 (log10 of the value in µM)

CCc1cc(C(C)=O)c(O)cc1OCc1cccc(C(=O)Nc2nc(CC(=O)O)cs2)n1	-0.52
CCc1cc(C(C)=O)c(O)cc1OCc1cccc(C(=O)NCCC(=O)O)n1	0.00
CCc1cc(C(C)=O)c(O)cc1OCc1cccc(C(=O)Nc2cccc(CC(=O)O)n2)n1	-0.10
CCc1cc(C(C)=O)c(O)cc1OCc1cncc(C(=O)Nc2nc(CC(=O)O)cs2)n1	1.00
CCc1cc(C(C)=O)c(O)cc1OCc1cccc(C(=O)Nc2nc(CC(=O)O)cs2)c1	0.70
